Reported Plant response rating (0 to 100 scale), Foxtail, Giant values are given for each entry in this list.
test system: foxtail, giant (giant foxtail, Setaria faberi); experiment: Test C preemergence, giant foxtail; format: in vivo; conditions: 125 g ai/ha Preemergence; 0 is no effect, 100 is complete control
Give the value as a plain number.

Example entries begin here.
{"COMPOUND": "Cc1cc(C)c(N2CCC(OCC3CCCC3)C2=O)cc1NS(=O)(=O)C(F)(F)F (stereo not drawn)", "TARGET UNDER TEST": "foxtail, giant (giant foxtail, Setaria faberi)", "ENDPOINT RESULT": 100}
{"COMPOUND": "COC(=O)N(c1cc(N2CCC(OC3CC3)C2=O)c(C)cc1C)S(=O)(=O)C(F)(F)F (stereo not drawn)", "TARGET UNDER TEST": "foxtail, giant (giant foxtail, Setaria faberi)", "ENDPOINT RESULT": 0}
{"COMPOUND": "Cc1cc(C)c(N2CCC(OCC3CCCO3)C2=O)cc1NS(=O)(=O)C(F)(F)F (stereo not drawn)", "TARGET UNDER TEST": "foxtail, giant (giant foxtail, Setaria faberi)", "ENDPOINT RESULT": 100}
{"COMPOUND": "Cc1cc(C)c(N(COC(=O)C(C)(C)C)S(=O)(=O)C(F)(F)F)cc1N1CCC(OCC2CC2(F)F)C1=O (stereo not drawn)", "TARGET UNDER TEST": "foxtail, giant (giant foxtail, Setaria faberi)", "ENDPOINT RESULT": 80}
{"COMPOUND": "Cc1c(NS(=O)(=O)C(F)(F)F)cc(N2CCCC(OC3CCC3)C2=O)c(C)c1F (stereo not drawn)", "TARGET UNDER TEST": "foxtail, giant (giant foxtail, Setaria faberi)", "ENDPOINT RESULT": 100}

So what's the measured Plant response rating (0 to 100 scale), Foxtail, Giant for this one? Cc1c(NS(=O)(=O)C(F)(F)F)cc(N2CCC(OC3CCC3)C2=O)c(C)c1F (stereo not drawn)
100

So what's the measured Plant response rating (0 to 100 scale), Foxtail, Giant for this one? Cc1c(N2CCCC(OC3CCC3)C2=O)cc(N(COC(=O)C(C)(C)C)S(=O)(=O)C(F)(F)F)c(C)c1F (stereo not drawn)
10

###

test system: oat, wild (wild oat, Avena fatua); assay: Test C preemergence, wild oat; type: in vivo; conditions: 31 g ai/ha Preemergence; 0 is no effect, 100 is complete control
QUANTITY KIND: Plant response rating (0 to 100 scale), Oat, Wild

Example entries begin here.
{"COMPOUND": "Cc1c(N2CCC(OC3CC3)C2=O)cc(N(COC(=O)C(C)(C)C)S(=O)(=O)C(F)(F)F)c(C)c1C (stereo not shown)", "ENDPOINT RESULT": 60}
{"COMPOUND": "Cc1cc(C)c(N(COC(=O)C(C)(C)C)S(=O)(=O)C(F)(F)F)cc1N1CCC(OCC2CC(F)(F)C2)C1=O (stereo not shown)", "ENDPOINT RESULT": 0}
{"COMPOUND": "Cc1c(NS(=O)(=O)C(F)(F)F)cc(N2CCC(OC3CCC3)C2=O)c(C)c1C (stereo not shown)", "ENDPOINT RESULT": 80}
{"COMPOUND": "C=C(C)COC1CCN(c2cc(NS(=O)(=O)C(F)(F)F)c(C)cc2C)C1=O (stereo not shown)", "ENDPOINT RESULT": 80}
{"COMPOUND": "Cc1cc(C)c(N2CCC(OC3COC3)C2=O)cc1NS(=O)(=O)C(F)(F)F (stereo not shown)", "ENDPOINT RESULT": 30}

So what's the measured Plant response rating (0 to 100 scale), Oat, Wild for this one? Cc1cc(C)c(N2CCC(OC3CC3)C2=O)cc1NS(=O)(=O)C(F)(F)F (single isomer, unassigned) [Compound 30]
80

So what's the measured Plant response rating (0 to 100 scale), Oat, Wild for this one? Cc1cc(C)c(N2CCC(OCc3ccccc3)C2=O)cc1NS(=O)(=O)C(F)(F)F (stereo not shown)
50

So what's the measured Plant response rating (0 to 100 scale), Oat, Wild for this one? Cc1cc(C)c(N(COC(=O)C(C)(C)C)S(=O)(=O)C(F)(F)F)cc1N1CCC(OCC2CC2)C1=O (stereo not shown)
0

So what's the measured Plant response rating (0 to 100 scale), Oat, Wild for this one? Cc1c(NS(=O)(=O)C(F)(F)F)cc(N2CCC(OCC3CC3)C2=O)c(C)c1F (stereo not shown)
70

So what's the measured Plant response rating (0 to 100 scale), Oat, Wild for this one? Cc1c(NS(=O)(=O)C(F)(F)F)cc(N2CCC(OC3CCC3)C2=O)c(C)c1F (stereo not shown)
40

So what's the measured Plant response rating (0 to 100 scale), Oat, Wild for this one? Cc1c(N2CCCC(OC3CCC3)C2=O)cc(N(COC(=O)C(C)(C)C)S(=O)(=O)C(F)(F)F)c(C)c1F (stereo not shown)
0

So what's the measured Plant response rating (0 to 100 scale), Oat, Wild for this one? Cc1c(NS(=O)(=O)C(F)(F)F)cc(N2CCC(OCC3CCC3)C2=O)c(C)c1F (stereo not shown)
20

###

tested on: ryegrass, Italian (Italian ryegrass, Lolium multiflorum); assay: Test C postemergence, Italian ryegrass; assay type: in vivo; conditions: 31 g ai/ha Postemergence; visual injury, 0 to 100 scale (0 no effect, 100 complete control)
QUANTITY KIND: Ryegrass, Italian plant response rating
Give the value as a plain number.

Example entries begin here.
{"MOLECULE": "Cc1c(NS(=O)(=O)C(F)(F)F)cc(N2CCC(OC3CCC3)C2=O)c(C)c1F (centres unmarked) [Compound 25]", "TARGET UNDER TEST": "ryegrass, Italian (Italian ryegrass, Lolium multiflorum)", "Ryegrass, Italian plant response rating": 20}
{"MOLECULE": "COC(=O)N(c1cc(N2CCC(OC3CC3)C2=O)c(C)cc1C)S(=O)(=O)C(F)(F)F (centres unmarked) [Compound 16]", "TARGET UNDER TEST": "ryegrass, Italian (Italian ryegrass, Lolium multiflorum)", "Ryegrass, Italian plant response rating": 0}
{"MOLECULE": "Cc1cc(C)c(N2CCC(OCC3CCC3(F)F)C2=O)cc1NS(=O)(=O)C(F)(F)F (centres unmarked) [Compound 52]", "TARGET UNDER TEST": "ryegrass, Italian (Italian ryegrass, Lolium multiflorum)", "Ryegrass, Italian plant response rating": 40}
{"MOLECULE": "Cc1c(NS(=O)(=O)C(F)(F)F)cc(N2CCC(OCC3CC3)C2=O)c(C)c1F (centres unmarked) [Compound 63]", "TARGET UNDER TEST": "ryegrass, Italian (Italian ryegrass, Lolium multiflorum)", "Ryegrass, Italian plant response rating": 0}
{"MOLECULE": "CCCC(=O)OCN(c1cc(N2CCC(OC3CC3)C2=O)c(C)cc1C)S(=O)(=O)C(F)(F)F (centres unmarked) [Compound 20]", "TARGET UNDER TEST": "ryegrass, Italian (Italian ryegrass, Lolium multiflorum)", "Ryegrass, Italian plant response rating": 60}

So what's the measured Ryegrass, Italian plant response rating for this one? C=C(C)COC1CCN(c2cc(NS(=O)(=O)C(F)(F)F)c(C)cc2C)C1=O (centres unmarked) [Compound 59]
10

So what's the measured Ryegrass, Italian plant response rating for this one? Cc1c(NS(=O)(=O)C(F)(F)F)cc(N2CCC(OC3CC3)C2=O)c(C)c1F (centres unmarked) [Compound 26]
60

So what's the measured Ryegrass, Italian plant response rating for this one? Cc1cc(C)c(N2CCC(OCC3CCCC3)C2=O)cc1NS(=O)(=O)C(F)(F)F (centres unmarked) [Compound 57]
20

###

test system: ryegrass, Italian (Italian ryegrass, Lolium multiflorum); experiment: Test C postemergence, Italian ryegrass; format: in vivo; conditions: 31 g ai/ha Postemergence; visual injury, 0 to 100 scale (0 no effect, 100 complete control)
Reported Ryegrass, Italian plant response rating values are given for each entry in this list.
Give the value as a plain number.

Example entries begin here.
{"COMPOUND": "Cc1cc(C)c(N(COC(=O)C(C)(C)C)S(=O)(=O)C(F)(F)F)cc1N1CCC(OCC2CC2)C1=O (centres unmarked) [Compound 53]", "TARGET UNDER TEST": "ryegrass, Italian (Italian ryegrass, Lolium multiflorum)", "Ryegrass, Italian plant response rating": 0}
{"COMPOUND": "Cc1c(N2CCCC(OC3CCC3)C2=O)cc(N(COC(=O)C(C)(C)C)S(=O)(=O)C(F)(F)F)c(C)c1F (centres unmarked) [Compound 39]", "TARGET UNDER TEST": "ryegrass, Italian (Italian ryegrass, Lolium multiflorum)", "Ryegrass, Italian plant response rating": 0}
{"COMPOUND": "CC(=O)N(c1cc(N2CCC(OC3CC3)C2=O)c(C)cc1C)S(=O)(=O)C(F)(F)F (centres unmarked) [Compound 17]", "TARGET UNDER TEST": "ryegrass, Italian (Italian ryegrass, Lolium multiflorum)", "Ryegrass, Italian plant response rating": 60}
{"COMPOUND": "Cc1cc(C)c(N2CCC(O)C2=O)cc1NS(=O)(=O)C(F)(F)F (centres unmarked) [Compound 14]", "TARGET UNDER TEST": "ryegrass, Italian (Italian ryegrass, Lolium multiflorum)", "Ryegrass, Italian plant response rating": 60}
{"COMPOUND": "Cc1c(N2CCC(OC3CC3)C2=O)cc(N(COC(=O)C(C)(C)C)S(=O)(=O)C(F)(F)F)c(C)c1F (centres unmarked) [Compound 23]", "TARGET UNDER TEST": "ryegrass, Italian (Italian ryegrass, Lolium multiflorum)", "Ryegrass, Italian plant response rating": 50}
{"COMPOUND": "Cc1c(NS(=O)(=O)C(F)(F)F)cc(N2CCC(OC3CC3)C2=O)c(C)c1C (centres unmarked) [Compound 47]", "TARGET UNDER TEST": "ryegrass, Italian (Italian ryegrass, Lolium multiflorum)", "Ryegrass, Italian plant response rating": 50}

Value wanted: Ryegrass, Italian plant response rating (ryegrass, Italian (Italian ryegrass, Lolium multiflorum)) of entry Cc1cc(C)c(N2CCC(OCc3ccccc3)C2=O)cc1NS(=O)(=O)C(F)(F)F (centres unmarked) [Compound 61]
0

Value wanted: Ryegrass, Italian plant response rating (ryegrass, Italian (Italian ryegrass, Lolium multiflorum)) of entry Cc1cc(C)c(N2CCC(OCC3CCC3)C2=O)cc1NS(=O)(=O)C(F)(F)F (centres unmarked) [Compound 43]
30
